System: HeLa
Assay: 24 h MTT assay, HeLa cells
Assay type: cell-based, human
Settings: read-out: IC50/24h
measure_name: IC50

Incoming: For HeLa, provide IC50 of Cc1ccc(C(C)C)cc1.O=C(C=C([O-])C(F)(F)F)[c-]1cccc1.[Cl-].[Fe+2].[Ru+2].c1cc[cH-]c1 [Compound 1] please.
Outgoing: 38 µM

###

Provide the recorded IC50 for the entries that follow.
Tested on: A2780cis
Test: MTT assay, 72 h continuous exposure, cisplatin-resistant A2780Cis cells
Assay type: cell-based, human
Details: read-out: IC50 A2780cis; 72 h continuous exposure, MTT assay
# value in µM; strip the unit string

Incoming: Which value of IC50 has been reported for Cc1ccc(C(C)C)cc1.O=C(C=C([O-])C(F)(F)F)[c-]1cccc1.[Cl-].[Fe+2].[Ru+2].c1cc[cH-]c1 in the records?
Outgoing: 3.1

Incoming: I would be grateful if you could share the reported IC50 for N.N.[Cl][Pt][Cl] [cisplatin, reference compound] .
Outgoing: 6.7

###

System: HeLa
Assay: 72 h crystal violet
Assay type: cell-based, human
Settings: read-out: IC50 (CV assay) HeLa; 72 h CV assay
measure_name: IC50 (µM)
Lab book: enter the figure in µM, no units written.

Incoming: Checklist item: IC50 tested on HeLa, entry Cc1ccc(C(C)C)cc1.O=C(C=C([O-])C(F)(F)F)[c-]1cccc1.[Cl-].[Fe+2].[Ru+2].c1cc[cH-]c1 , value?
Outgoing: 4.4
